Attribute: log10 Solubility
Settings: in acetone, room temperature
measure.name: log10 Solubility (log10 of the value in mol/kg)

- O=C1O[B-]2(OC1=O)OC(=O)C(=O)O2.[Li+] [LOB, Lithium-bis(oxalato)borate]: 0.26
- O=C1CC(=O)O[B-]2(O1)OC(=O)CC(=O)O2.[Li+] [LMB, Lithium-bis(malonato)borate]: -1.52
- O=C1O[B-]2(OC1=O)OC(=O)c1ccccc1O2.[Li+] [LOSB, Lithium-(oxalato,salicylato)borate]: -0.29
- CC1O[B-]2(OC(=O)C(=O)O2)OC1=O.[Li+] (stereo not drawn) [LLOB, Lithium-(lactato,oxalato)borate]: 0.14
- O=C1CC(=O)O[B-]2(O1)OC(=O)C(=O)O2.[Li+] [LOMB, Lithium-(malonato,oxalato)borate]: -0.37
